From: the supplement of paper PMC9112550

System: Escherichia coli TOP10;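 also: peptides expressed intracellularly from a pBAD plasmid library in pooled LB shake-flask culture, induced with 0.3% L-arabinose, DNA abundance read by NGS, three biological replicates, DESeq2 with apeglm shrinkage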
EXPERIMENTAL PROTOCOL: shrunken log2 fold change of peptide-encoding DNA abundance (4.5 h post-induction vs induction); higher = less antimicrobial activity (less host growth inhibition)
MEASUREMENT SETUP: time post-induction: 4.5 h; library: site-saturation at positions 5, 18, 19, 20
Tag: rule met if measured shrunken log2 fold change is not below -0.06, rule not met if it is.

Check out these entries, answers already filled in.
>  <SEQ>
RRIRWRPPRLPRPRPRPQARPRP

>  <LABEL VALUE>
rule met

$$$$
>  <SEQ>
RRIRARPPRLPRPRPRPKSRPRP

>  <LABEL VALUE>
rule met

$$$$
>  <SEQ>
RRIRGRPPRLPRPRPRPSSMPRP

>  <LABEL VALUE>
rule not met

$$$$
>  <SEQ>
RRIRGRPPRLPRPRPRPDHYPRP

>  <LABEL VALUE>
rule not met

$$$$
>  <SEQ>
RRIRMRPPRLPRPRPRPYADPRP

>  <LABEL VALUE>
rule met

$$$$
>  <SEQ>
RRIRSRPPRLPRPRPRPWWMPRP

>  <LABEL VALUE>
rule met

$$$$
>  <SEQ>
RRIRARPPRLPRPRPRPPNTPRP

>  <LABEL VALUE>
rule met

$$$$
>  <SEQ>
RRIRNRPPRLPRPRPRPEITPRP

>  <LABEL VALUE>
rule met

$$$$

Query: Is shrunken log2 fold change for `RRIRYRPPRLPRPRPRPGSNPRP` at or above -0.06?
Reply: rule met

Query: Kindly determine if shrunken log2 fold change recorded for `RRIRARPPRLPRPRPRPEKWPRP` is above or exactly -0.06.
Reply: rule met

Query: Please indicate if the recorded shrunken log2 fold change for `RRIRMRPPRLPRPRPRPSLYPRP` meets or exceeds -0.06.
Reply: rule not met

Query: Is shrunken log2 fold change for `RRIRSRPPRLPRPRPRPLAVPRP` at or above -0.06?
Reply: rule met

Query: Threshold query (shrunken log2 fold change >= -0.06) on `RRIRNRPPRLPRPRPRPHLGPRP`
Reply: rule not met
